# credit: ChEMBL document CHEMBL5500408

# test_details: Retention time of the compound by RP-HPLC analysis
# Type: physicochemical
Residues, ends and D or L forms follow the SMILES beside them.
Can you tell me Retention_time for the items I'm about to list?
API: value field is a number in min; no unit string.

Data request: Provide measured Retention_time value, entry: CC(C)C[C@@H]1NC(=O)[C@H](CCCNC(=N)N)NC(=O)[C@H](C(C)C)NC(=O)[C@@H]2CCCN2C(=O)[C@@H](Cc2c[nH]cn2)NC(=O)[C@H](CC(C)C)NC(=O)[C@H](CCCN)NC(=O)[C@H](C(C)C)NC(=O)[C@@H]2CCCN2C(=O)[C@@H](Cc2ccccc2)NC1=O
Data returned: 16.09

Data request: Tell me measured Retention_time for CC(C)C[C@@H]1NC(=O)[C@H](CCCN)NC(=O)[C@H](C(C)C)NC(=O)[C@@H]2CCCN2C(=O)[C@@H](Cc2ccccc2)NC(=O)[C@H](CC(C)C)NC(=O)[C@H](CCCN)NC(=O)[C@H](C(C)C)NC(=O)[C@@H]2CCCN2C(=O)[C@@H](CCCNC(=N)N)NC1=O (HELM PEPTIDE1{L.[dF].P.V.[Orn].L.[dR].P.V.[Orn]}$PEPTIDE1,PEPTIDE1,1:R1-10:R2$$$V2.0) please.
Data returned: 16.22

Data request: Check the records and state Retention_time for CC(C)C[C@@H]1NC(=O)[C@H](CCCNC(=N)N)NC(=O)[C@H](C(C)C)NC(=O)[C@@H]2CCCN2C(=O)[C@@H](Cc2ccccc2)NC(=O)[C@H](CC(C)C)NC(=O)[C@H](CCCNC(=N)N)NC(=O)[C@H](C(C)C)NC(=O)[C@@H]2CCCN2C(=O)[C@@H](Cc2ccccc2)NC1=O
Data returned: 18.62
